B1: TBX5 (parent)
chain: YQNHKITQLKIENNPFAKGFRGSD

Variants of: B1
Experiment: protein stability index of a GFP-peptide fusion (GPS, HEK-293T) (PSI 1-6); higher = more stable;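 further: lentivirally expressed fusions sorted by FACS into six bins by GFP to DsRed ratio, PSI derived from sequencing read proportions per bin multiplied by bin number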
Details: c terminus: a fixed tail appended
readoutType: protein stability index

• A17V = 2.73
• D24E = 2.64
• L9C = 2.02
• H4Y = 2.15
• G22N = 2.4
• N14I = 2.41
• H4M = 2.49
• H4P = 2.58
• Q8A = 2.79
• K5D = 3.06
• S23W = 2.02
• D24Y = 2.04
• G22L = 2.02
• N3L = 2.07
• D24V = 1.83
• N13M = 2.29
